test-name: Plasma pharmacokinetics, multiple ascending doses
Type: in vivo, human
assay-context: human, plasma, oral, 600 mg, C max, MAD 600 mg q.d., Day 1; mean ± SD
observable: Cmax (ng/mL)

# smiles-str, test-value
measured = [
    ("N#CN1C[C@H](n2nc(-c3ccc(Oc4ccc(Cl)cn4)cc3)c(C(N)=O)c2N)CCC12CC2", 910),
]

###

test-name: Plasma pharmacokinetics, single ascending dose
Format: in vivo, human
assay-context: human, plasma, oral, 400 mg
observable: Tmax

# molecule, test-value
rows = [
    ("N#CN1C[C@H](n2nc(-c3ccc(Oc4ccc(Cl)cn4)cc3)c(C(N)=O)c2N)CCC12CC2 [SN1011]", "3.5 h"),
]

###

test-name: Plasma pharmacokinetics, single ascending dose
Assay type: in vivo, human
assay-context: human, plasma, oral, 100 mg

# smiles-str, Vd/F, L
measured = [
    ("N#CN1C[C@H](n2nc(-c3ccc(Oc4ccc(Cl)cn4)cc3)c(C(N)=O)c2N)CCC12CC2", 1210),
]

###

test-name: Plasma pharmacokinetics, single ascending dose
Type: in vivo, human
assay-context: human, plasma, oral, 200 mg

# smiles-str, AUC(0-inf) / ng·h/mL
rows = [
    ("N#CN1C[C@H](n2nc(-c3ccc(Oc4ccc(Cl)cn4)cc3)c(C(N)=O)c2N)CCC12CC2", 4920),
]

###

test-name: Plasma pharmacokinetics, food effect
Type: in vivo, human
assay-context: human, plasma, oral, 600 mg, Tmax, Fed, median (min, max)
observable: Tmax (h)

# smiles-str, units-label, test-value
measured = [
    ("N#CN1C[C@H](n2nc(-c3ccc(Oc4ccc(Cl)cn4)cc3)c(C(N)=O)c2N)CCC12CC2", "h", 6),
]

###

test-name: Plasma pharmacokinetics, single ascending dose
Format: in vivo, human
assay-context: human, plasma, po, 100 mg
observable: Cmax (ng/mL)

# smiles-str, observable, test-value
data = [
    ("N#CN1C[C@H](n2nc(-c3ccc(Oc4ccc(Cl)cn4)cc3)c(C(N)=O)c2N)CCC12CC2", "Cmax", 84.2),
]

###

test-name: Plasma pharmacokinetics, single ascending dose
Assay type: in vivo, human
assay-context: human, plasma, oral, 600 mg

# smiles-str, units-label, AUC(0-inf)
measured = [
    ("N#CN1C[C@H](n2nc(-c3ccc(Oc4ccc(Cl)cn4)cc3)c(C(N)=O)c2N)CCC12CC2", "ng·h/mL", 16800),
]

###

test-name: Plasma pharmacokinetics, single ascending dose
Type: in vivo, human
assay-context: human, plasma, oral, 200 mg, AUC0-24, SAD 200 mg; mean ± SD
observable: AUC(0-t)

# smiles-str, test-value
data = [
    ("N#CN1C[C@H](n2nc(-c3ccc(Oc4ccc(Cl)cn4)cc3)c(C(N)=O)c2N)CCC12CC2", "3210 ng·h/mL"),
]

###

test-name: Plasma pharmacokinetics, food effect
Format: in vivo, human
assay-context: human, plasma, oral, 600 mg, T1/2, 600 mg, Fed; mean ± SD
observable: half-life (h)

# compound, units-label, test-value
measured = [
    ("N#CN1C[C@H](n2nc(-c3ccc(Oc4ccc(Cl)cn4)cc3)c(C(N)=O)c2N)CCC12CC2 [SN1011]", "h", 26.6),
]

###

test-name: Plasma pharmacokinetics, multiple ascending doses
Type: in vivo, human
assay-context: human, plasma, oral, 400 mg, C max, MAD 400 mg q.d., Day 1; mean ± SD
observable: Cmax (ng/mL)

# smiles-str, units-label, test-value
rows = [
    ("N#CN1C[C@H](n2nc(-c3ccc(Oc4ccc(Cl)cn4)cc3)c(C(N)=O)c2N)CCC12CC2", "ng/mL", 727),
]

###

test-name: Plasma pharmacokinetics, food effect
Type: in vivo, human
assay-context: human, plasma, oral, 600 mg, T1/2, 600 mg, Fasted; mean ± SD
observable: half-life (h)

# smiles-str, observable, test-value
measured = [
    ("N#CN1C[C@H](n2nc(-c3ccc(Oc4ccc(Cl)cn4)cc3)c(C(N)=O)c2N)CCC12CC2", "half-life", 24.3),
]

###

test-name: Plasma pharmacokinetics, single ascending dose
Type: in vivo, human
assay-context: human, plasma, oral, 100 mg
observable: AUC(0-inf) (ng·h/mL)

# smiles-str, observable, test-value
rows = [
    ("N#CN1C[C@H](n2nc(-c3ccc(Oc4ccc(Cl)cn4)cc3)c(C(N)=O)c2N)CCC12CC2", "AUC(0-inf)", 2110),
]

###

test-name: Plasma pharmacokinetics, single ascending dose
Type: in vivo, human
assay-context: human, plasma, oral, 800 mg, AUC0-t, SAD 800 mg; mean ± SD

# compound, AUC(0-t), ng·h/mL
records = [
    ("N#CN1C[C@H](n2nc(-c3ccc(Oc4ccc(Cl)cn4)cc3)c(C(N)=O)c2N)CCC12CC2 [SN1011]", 21900),
]

###

test-name: Plasma pharmacokinetics, single ascending dose
Format: in vivo, human
assay-context: human, plasma, oral, 400 mg, AUC0-24, SAD 400 mg; mean ± SD

# smiles-str, units-label, AUC(0-t)
data = [
    ("N#CN1C[C@H](n2nc(-c3ccc(Oc4ccc(Cl)cn4)cc3)c(C(N)=O)c2N)CCC12CC2", "ng·h/mL", 6510),
]

###

test-name: Plasma pharmacokinetics, multiple ascending doses
Assay type: in vivo, human
assay-context: human, plasma, oral, 600 mg
observable: half-life (h)

# smiles-str, test-value
data = [
    ("N#CN1C[C@H](n2nc(-c3ccc(Oc4ccc(Cl)cn4)cc3)c(C(N)=O)c2N)CCC12CC2", 20.4),
]

###

test-name: Plasma pharmacokinetics, multiple ascending doses
Type: in vivo, human
assay-context: human, plasma, oral, 600 mg, T max, MAD 600 mg q.d., Day 10; median (min, max)
observable: Tmax (h)

# smiles-str, test-value
rows = [
    ("N#CN1C[C@H](n2nc(-c3ccc(Oc4ccc(Cl)cn4)cc3)c(C(N)=O)c2N)CCC12CC2", 2.5),
]

###

test-name: Plasma pharmacokinetics, single ascending dose
Format: in vivo, human
assay-context: human, plasma, oral, 200 mg
observable: half-life (h)

# smiles-str, test-value
data = [
    ("N#CN1C[C@H](n2nc(-c3ccc(Oc4ccc(Cl)cn4)cc3)c(C(N)=O)c2N)CCC12CC2", 15.5),
]

###

test-name: Plasma pharmacokinetics, multiple ascending doses
Assay type: in vivo, human
assay-context: human, plasma, oral, 400 mg, AUC0-t, MAD 400 mg q.d., Day 10; mean ± SD

# smiles-str, units-label, AUC(0-t)
rows = [
    ("N#CN1C[C@H](n2nc(-c3ccc(Oc4ccc(Cl)cn4)cc3)c(C(N)=O)c2N)CCC12CC2", "ng·h/mL", 26400),
]
